- system_name: T1, integrin αvβ3, purified from human placenta (human, UniProt P06756 31-1048; P05106 27-788)
- T1 construct: mature; Native heterodimer, immobilized on ELISA plates or on the BIAcore chip; biotinylated in capture lift and capture ELISA screens; also called αvβ3 receptor; vitronectin receptor
- measurement_notes: SPR (BIAcore), purified Fab over immobilized αvβ3
quantity_measured: Kd (nM)
Quick reminder: number only, in nM, skip the unit.

Record excerpt, results attached:
- binder: "LM609 grafted antibody combinatorial clone 7 (Fab, V domains shown, Fab) VH: QVQLVESGGGVVQPGRSLRLSCAASGFTFSSYDMSWVRQAPGKGLEWVAKVSSGGGSTYYPDTVQGRFTISRDNSKNTLYLQMNSLRAEDTAVYYCARHNHGSFASWGQGTTVTVSS VL: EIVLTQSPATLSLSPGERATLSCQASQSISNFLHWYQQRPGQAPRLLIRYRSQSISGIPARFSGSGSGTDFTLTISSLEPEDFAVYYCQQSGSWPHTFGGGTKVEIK"
  Kd [nM]: 1.2
- binder: "LM609 grafted antibody combinatorial clone C176 (Fab, V domains shown, Fab) VH: QVQLVESGGGVVQPGRSLRLSCAASGFTFSSYDMSWVRQAPGKGLEWVAKVSSGGGSTYYPDTVQGRFTISRDNSKNTLYLQMNSLRAEDTAVYYCARHNYGSFATWGQGTTVTVSS VL: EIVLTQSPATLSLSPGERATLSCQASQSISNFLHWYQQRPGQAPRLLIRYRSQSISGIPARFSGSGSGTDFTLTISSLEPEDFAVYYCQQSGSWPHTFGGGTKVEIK"
  Kd [nM]: 0.9
- binder: "LM609 grafted antibody combinatorial clone C119 (Fab, V domains shown, Fab) VH: QVQLVESGGGVVQPGRSLRLSCAASGFTFSSYDMSWVRQAPGKGLEWVAKVSSGGGSTYYPDTVQGRFTISRDNSKNTLYLQMNSLRAEDTAVYYCARHNYGSFASWGQGTTVTVSS VL: EIVLTQSPATLSLSPGERATLSCQASQSISNHLHWYQQRPGQAPRLLIRYRSQSISGIPARFSGSGSGTDFTLTISSLEPEDFAVYYCQQSNSWPHTFGGGTKVEIK"
  Kd [nM]: 1.5

Now look at this one.
Sample LM609 grafted antibody combinatorial clone 6D1 (Fab, V domains shown, Fab) VH: QVQLVESGGGVVQPGRSLRLSCAASGFTFSSYDMSWVRQAPGKGLEWVAKVSSGGGSTYYPDTVQGRFTISRDNSKNTLYLQMNSLRAEDTAVYYCARHNYGSFYSWGQGTTVTVSS VL: EIVLTQSPATLSLSPGERATLSCQASQSISNHLHWYQQRPGQAPRLLIRYRSQSISGIPARFSGSGSGTDFTLTISSLEPEDFAVYYCQQSGSWPLTFGGGTKVEIK ; Kd observed: 0.4

Recorded values, source patent US20060204492A1.
